# Tested on: Rh18 complex spheroid viability, percent test/control
# PROCEDURE_DETAILS: Anticancer human tumor Rh18 cell line growth inhibition [Asc]; active means viability on the fitted dose curve at most 10% of control; inactive means the rest;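 further: spheroids exposed to compound for 7 days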
# CONDITIONS: second compound 0.316 µM; first compound 0.1 µM
Labels: true = active, false = inactive

>>> assigned_label("C=C(F)C(=O)N1CCN(c2nc(OCC3CCCN3C)nc3c2CCN(c2cccc4cccc(Cl)c24)C3)CC1CC#N (configuration not stated) + CNC(C)C(=O)NC1CN(S(=O)(=O)c2cccc(S(=O)(=O)N3CCC4CCC(C(=O)NC(c5ccccc5)c5ccccc5)N4C(=O)C(NC(=O)C(C)NC)C3)c2)CCC2CCC(C(=O)NC(c3ccccc3)c3ccccc3)N2C1=O")
"false"
>>> assigned_label("O=C(c1cc(Cc2n[nH]c(=O)c3ccccc23)ccc1F)N1CCN(C(=O)C2CC2)CC1 + Cc1c(S(C)(=O)=O)c(-c2cc(F)cc(N3CCN(c4ccc(NS(=O)(=O)c5ccc(NC(CCN6CCC(C(=O)OCCCP(=O)(O)O)CC6)CSc6ccccc6)c(S(=O)(=O)C(F)(F)F)c5)cc4)CC3)c2)c(-c2ccc(Cl)cc2)n1C(C)C")
"false"
>>> assigned_label("O=C(c1ccc(F)c(F)c1Nc1ccc(I)cc1F)N1CC(O)([C@@H]2CCCCN2)C1 + CNC(C)C(=O)NC1CN(S(=O)(=O)c2cccc(S(=O)(=O)N3CCC4CCC(C(=O)NC(c5ccccc5)c5ccccc5)N4C(=O)C(NC(=O)C(C)NC)C3)c2)CCC2CCC(C(=O)NC(c3ccccc3)c3ccccc3)N2C1=O")
"false"
>>> assigned_label("O=C(c1cc(Cc2n[nH]c(=O)c3ccccc23)ccc1F)N1CCN(C(=O)C2CC2)CC1 + CNC(C)C(=O)NC1CN(S(=O)(=O)c2cccc(S(=O)(=O)N3CCC4CCC(C(=O)NC(c5ccccc5)c5ccccc5)N4C(=O)C(NC(=O)C(C)NC)C3)c2)CCC2CCC(C(=O)NC(c3ccccc3)c3ccccc3)N2C1=O")
"false"
>>> assigned_label("C=CC(=O)N1CCN(c2nc(=O)n(-c3c(C)ccnc3C(C)C)c3nc(-c4c(O)cccc4F)c(F)cc23)C(C)C1 (configuration not stated) + CNC(C)C(=O)NC1CN(S(=O)(=O)c2cccc(S(=O)(=O)N3CCC4CCC(C(=O)NC(c5ccccc5)c5ccccc5)N4C(=O)C(NC(=O)C(C)NC)C3)c2)CCC2CCC(C(=O)NC(c3ccccc3)c3ccccc3)N2C1=O")
"false"
>>> assigned_label("Cn1ncnc1[C@H]1c2n[nH]c(=O)c3cc(F)cc(c23)N[C@@H]1c1ccc(F)cc1 + CNC(C)C(=O)NC1CN(S(=O)(=O)c2cccc(S(=O)(=O)N3CCC4CCC(C(=O)NC(c5ccccc5)c5ccccc5)N4C(=O)C(NC(=O)C(C)NC)C3)c2)CCC2CCC(C(=O)NC(c3ccccc3)c3ccccc3)N2C1=O")
"false"
>>> assigned_label("CCN1CCN(Cc2ccc(Nc3ncc(F)c(-c4cc(F)c5nc(C)n(C(C)C)c5c4)n3)nc2)CC1 + Cc1c(S(C)(=O)=O)c(-c2cc(F)cc(N3CCN(c4ccc(NS(=O)(=O)c5ccc(NC(CCN6CCC(C(=O)OCCCP(=O)(O)O)CC6)CSc6ccccc6)c(S(=O)(=O)C(F)(F)F)c5)cc4)CC3)c2)c(-c2ccc(Cl)cc2)n1C(C)C")
"true"
